Where do these numbers come from? They come from PubChem BioAssay AID463173.

System: Wild type
Assay: S. aureus survival, RN4220 and DeltatarO strains – OD600, teichoic acid synthesis inhibitors, primary screen (AID 463173)
Conditions: S. aureus RN4220 wild type/DeltatarO growth, OD600, 18 h, hits give low values, screened at 18.75 µg/mL (by protocol)
Out of some 52,000 compounds screened, about 1,700 (3.3%) were called active. The entries come from a sample that favours actives as a whole.
test readout: survival (%)
Quick reminder: number only, in %, skip the unit.

{"molecule": "Cc1ccc(NC(=O)CN2C(=O)C3(SCC(=O)N3c3ccc(F)c(F)c3)c3ccccc32)c(C)c1 (stereo not drawn)", "test readout": "survival", "quantitative result": 69}

Entry COc1cccc(-c2csc(-c3c(N)c(C(=O)c4ccccc4)n4ccccc34)n2)c1 , system Wild type: what survival was measured? 72

Param readout = survival; param system = Wild type; param query = COc1cccc(C(=O)Nc2cc(-c3ccccc3)nn2-c2ccccc2)c1 ; response: value 69

Recall the recorded survival for CCOc1ccc(NC(=O)CC2C(=O)N(c3ccccc3)C(=O)N2C2CCCCC2)cc1 (stereo not drawn) with Wild type and state it. 69

Lab request: please report survival under test system Wild type for O=C(CSc1nc2ccccc2nc1Cc1ccc(Cl)cc1)NCCc1ccccc1 69

Lookup: survival / Wild type / CCCCN(CC)CCNC(=O)CCn1cnc2onc(-c3ccc(F)cc3)c2c1=O 72

Fill in the recorded survival for this molecule, with Wild type as test system: CCc1ccc(NC(=O)CC2C(=O)N(c3cccc(C)c3)C(=O)N2CCC(C)C)cc1 (stereo not drawn) 72

Form field - read-out: survival; system: Wild type; submitted item: CCc1ccccc1NS(=O)(=O)c1ccc2c(c1)CCN2C(=O)C1CC1 72

* * *

Test system: Wild type
Assay: S. aureus survival, RN4220 and DeltatarO strains – OD600, teichoic acid synthesis inhibitors, primary screen (AID 463173)
Conditions: S. aureus RN4220 wild type/DeltatarO growth, OD600, 18 h, hits give low values, screened at 18.75 µg/mL (by protocol)
About 1,700 (3.3%) of roughly 52,000 compounds were called active. The sample as a whole holds a higher share of actives than the screen did.
Could you mark each record criterion met if its survival falls strictly under 60%, and criterion not met if it equals or exceeds it?

Some entries whose results are on file:
{"molecule": "Cc1cccc(C(=O)NCC(c2ccc3c(c2)OCO3)N2CCN(c3ccccc3F)CC2)c1 (centres undefined)", "target or test system": "Wild type", "assigned label": "criterion not met"}
{"molecule": "Cc1ccc(N2CCN(S(=O)(=O)c3cc(C(=O)Nc4cc(Cl)cc(Cl)c4)ccc3F)CC2C)cc1 (centres undefined)", "target or test system": "Wild type", "assigned label": "criterion not met"}
{"molecule": "CCN1CCC(N(Cc2cccc(OC)c2)C(=O)Nc2cccc(C)c2C)CC1", "target or test system": "Wild type", "assigned label": "criterion met"}

For O=C(NC1CC2CCCC(C1)N2CC(=O)N1CCCc2ccccc21)c1ccccc1 (centres undefined) , is the recorded survival below the cut-off of 60%? criterion not met

Lab log: compare recorded survival with 60%; is it strictly lower for CCN(CC)c1ccc(C(=O)N2CCC(c3ccncc3)CC2)cc1 ? criterion not met

survival strictly < 60% for this molecule? CCOc1ccc(C(=O)N2CCC(c3ccncc3)CC2)cc1 criterion not met

Please state whether survival is below 60% for COc1ccc(-c2cc(C(=O)Oc3ccc(C)c(C)c3)c3ccccc3n2)cc1 criterion met
